Taken from PubChem BioAssay (NCI).

- System: HOP-92 NSCLC
- testProtocol: NCI tumour cell line growth inhibition, 48 h
TGI of 20 µM or higher: yes (1). Under 20 µM: no (0).

Request: Quick check, TGI >= 20 µM? COc1ccc(C2=NNC(=O)OC2c2ccccc2)cc1 (stereo not given)
Result: yes (1)

Request: Quick check: does COc1ccc2oc3c4c2c1CCC4CCC3=O (stereo not given) have TGI greater than or equal to 20 µM?
Result: yes (1)

Request: Could you verify whether the entry O=[N+]([O-])c1ccc(-c2nc(-c3ccccc3)c(-c3ccccc3)n2-c2ccccc2)cc1 shows TGI of no less than 20 µM?
Result: no (0)

Request: Entry Cc1ccc(C2NC(=S)NC3=C2CCOc2c3ccc3ccccc23)cc1 (stereo not given) : is its TGI no less than 20 µM?
Result: yes (1)

Request: Would you say COc1ccc2nc3cccc([N+](=O)[O-])c3c(NCCO)c2c1 shows TGI at minimum 20 µM?
Result: no (0)

Request: # bool: TGI of CC(=O)C1CC=C(C)CC1 (stereo not given) >= 20 µM
Result: yes (1)

Request: Quick check, TGI >= 20 µM? CCOC(=O)N1CCc2cc(OC)c(OC)c3c2C1CC3=O (stereo not given)
Result: yes (1)

Request: Could you please find out whether COc1ccc(C(O)/C(=N\NC(N)=S)c2nc3ccc([N+](=O)[O-])cc3[nH]c2=O)cc1OC (stereo not given) has TGI that meets 20 µM or exceeds it?
Result: yes (1)

Request: Given the entry CCOc1ccc([C@@H]2[C@@H](Oc3ccccc3)C(=O)N2c2cc(OC)c(OC)c(OC)c2)cc1 , answer whether its TGI meets or surpasses 20 µM.
Result: yes (1)

Request: Test whether the compound CN(C)c1ccc(/C=C(/NC(=O)c2ccccc2)c2nc3ccc(Cl)cc3[nH]2)cc1 records TGI of 20 µM or higher.
Result: yes (1)

Request: Has COc1cccc(NC(=S)Nn2c(C)nc3ccccc3c2=O)c1 a recorded TGI greater than or equal to 20 µM?
Result: yes (1)

Request: Hi, just wondering whether O=C1C(Br)=CC2(C=C1Br)CCN=c1c2c(O)c2nc3ccccc3c3ccnc1c23 shows TGI of 20 µM or higher.
Result: no (0)

Request: Answer whether TGI of CCNCC(=O)O[C@]1(CC)C(=O)OCc2c1cc1n(c2=O)Cc2cc3ccccc3nc2-1 is greater than or equal to 20 µM.
Result: no (0)

Request: Entry COc1ccc(-c2csc(=Nc3ccccc3)n2CC(O)c2ccc([N+](=O)[O-])cc2)cc1 (stereo not given) : is its TGI no less than 20 µM?
Result: yes (1)

Request: Could you please find out whether O=c1oc2ccccc2c(O)c1C(c1ccco1)c1c(O)c2ccccc2oc1=O has TGI that meets 20 µM or exceeds it?
Result: yes (1)

Request: Please check the record CC(N)C(C)Cc1ccccc1 (stereo not given) and state if its TGI is at or above 20 µM.
Result: yes (1)

Request: Quick check, TGI >= 20 µM? CN(C)CCNc1ccc2c(=O)n(CCN(C)C)c(=O)n3c4ccc([N+](=O)[O-])cc4c(=O)c1c23
Result: no (0)

Request: Test whether the compound NC(CSC(c1ccccc1)(c1ccccc1)c1ccc(Cl)cc1)C(=O)O (stereo not given) records TGI of 20 µM or higher.
Result: yes (1)

Request: Is TGI for COc1ccc(Nn2c(SCC(=O)Nc3nc(-c4ccc(Cl)cc4)cs3)nc(C)c2C)cc1 at or above 20 µM?
Result: no (0)

Request: Please tell me: is the compound CC1(C)CC(=O)C2=C(C1)c1c(ccc3ccccc13)NC2c1cn(Cc2ccc(Cl)cc2)c2ccccc12 (stereo not given) at or over 20 µM in terms of TGI?
Result: yes (1)

Request: Reported TGI reaches at least 20 µM for Cc1ccc(-c2nc(SCC(=O)O)n[nH]2)cc1 ?
Result: yes (1)

Request: State whether the measured TGI reaches 20 µM, counting equality as reaching it, for COc1cccc(C2C(C#N)=C(N)Oc3cc(N)ccc32)c1 (stereo not given)
Result: yes (1)

Request: Check the entry CCOC(=O)c1c(C)c2c(n1C)CCc1cn[nH]c1-2 : does TGI equal or exceed 20 µM?
Result: yes (1)

Request: Record C=C(C)[C@@H]1CC[C@]2(C)[C@H](C(=O)C=C3[C@@H]4C[C@](C)(C(=O)N5CCN(C)CC5)CC[C@]4(C)CC[C@]32C)[C@@]1(C)CCC#N ; criterion: TGI no lower than 20 µM. Met?
Result: no (0)

Request: For this compound, is measured TGI 20 µM or higher? COC1=CC(=O)[C@H]2[C@H](C)C(c3ccccc3)[C@@]2(C)C1=O (stereo not given in full)
Result: yes (1)

Request: I'd appreciate it if you could say whether O=C1CN2Cc3cc(N4CCOCC4)ccc3N=C2N1 has TGI at least equal to 20 µM.
Result: yes (1)

Request: Is TGI at least 20 µM? Consider O=P(O)(O)c1ccccc1 (tested in a mixture with another compound)
Result: yes (1)

Request: Does the reported TGI for Cc1cc(C)nc(NS(=O)(=O)c2ccc(Nc3c4ccccc4nc4c(C(=O)NCCCN(CCO)CCO)cccc34)cc2)n1 fall at or above the 20 µM mark?
Result: yes (1)

Request: Is TGI at least 20 µM? Consider O=C1Nc2cccc(Cl)c2/C1=C\c1c(Cl)nc2sccn12
Result: yes (1)

Request: Check the entry O=C/C(=C(/Br)I)c1ccccc1 : does TGI equal or exceed 20 µM?
Result: no (0)

Request: # bool: TGI of O=C(O)C1C(C(=O)Nc2ccc3c(c2)Cc2ccccc2-3)C2(Cl)C(Cl)=C(Cl)C1(Cl)C2(Cl)Cl (stereo not given) >= 20 µM
Result: yes (1)

Request: TGI >= 20 µM for COc1ccc(NC(=O)n2nc(N)c3ccccc32)cc1OC ?
Result: yes (1)

Request: Exam item: decide whether the reported TGI for CCCc1c(OC)c(=O)c2c(OC)cc(OC)c3c4c(OC)cc(OC)c5c(=O)c(OC)c(CCC)c(c1c23)c54 is at least 20 µM.
Result: yes (1)

Request: hey, is TGI for this one >= 20 µM? COc1cc(C(=O)/C=C/c2cc(C(=O)c3cc(OC)c(OC)c(OC)c3)ccc2OC)ccc1N
Result: yes (1)

Request: Does the compound COc1ccc(/C(Cl)=C(\C=O)c2ccc([N+](=O)[O-])cc2)cc1OC have recorded TGI that is 20 µM or more?
Result: yes (1)

Request: hey, is TGI for this one >= 20 µM? O=C1NC(Cc2c[nH]c3ccccc23)C(=O)N2C(C3CCCCC3)c3[nH]c4ccccc4c3C[C@@H]12 (stereo not given in full)
Result: yes (1)

Request: Check if TGI >= 20 µM (inclusive). Item: CCN(CC)c1cc(/C=C/c2ccc(OC)c(OC)c2)nc2cc(F)c(F)cc12
Result: no (0)

Request: Does the reported TGI for CCn1c2c(n(CC)c1=S)-c1c(n(CC)c(=S)n1CC)SSSS2 fall at or above the 20 µM mark?
Result: no (0)

Request: Assess whether reported TGI for CN1C2(c3ccccc3)c3c(-c4ccccc4)sc(-c4ccccc4)c3C1(c1ccccc1)C1C(=O)N(c3ccccc3)C(=O)C12 (stereo not given) sits at 20 µM or higher.
Result: yes (1)

Request: Please tell me: is the compound CC(=O)c1ccc(NC(=O)CSc2nnc(-c3cc(-c4ccc(C)cc4)nc4ccccc34)o2)cc1 at or over 20 µM in terms of TGI?
Result: no (0)
